test system: OVCAR-4; assay: NCI tumour cell line growth inhibition, 48 h
The source made the active and inactive calls. Rule as the data show it: active = GI50 up to about 1.1 µM and inactive = higher.
Outcomes: t (active), f (inactive)

COMPOUND	MEASUREMENT TARGET	ASSIGNED CLASS
C=CCNC1=C2C[C@@H](C)C[C@H](OC)[C@H](O)[C@@H](C)/C=C(\C)[C@H](OC(N)=O)[C@@H](OC)/C=C\C=C(/C)C(=O)NC(=CC1=O)C2=O [TANESPIMYCIN]	OVCAR-4	f
CCOc1ccc(/N=C/c2c3ccccc3nc3ccccc23)cc1	OVCAR-4	f
C=CCN1C(=O)/C(=C/c2ccccc2)N=C1SC/C=C/C	OVCAR-4	f
CC1=CC[C@@H]2[C@@H](CC[C@@]2(C)O)C(C)(C)[C@H]1CC[C@@H]1[C@@]2(C)CC[C@@H](O)C(C)(C)O[C@@H]2CC[C@]1(C)O	OVCAR-4	f
CCOC(=O)C1(C(=O)OCC)CN(CC)CN(c2ccccc2)C1	OVCAR-4	f
O=C(Nc1ccc(Br)c2ccccc12)c1ccc2ccccc2c1O	OVCAR-4	f
CC[C@@]1(O)C(=O)OCc2c1cc1n(c2=O)Cc2cc3c(OC)cccc3nc2-1	OVCAR-4	t
Nc1cc2c3c(c1)Oc1cc(N)cc4c1C3c1c(cc(N)cc1O4)O2	OVCAR-4	f
CN1C(NCCO)=NS(=O)(=O)c2ccccc21	OVCAR-4	f
COc1cccc(NC(=O)c2c(N)n[nH]c2SC)c1	OVCAR-4	f
O=C(O)c1nc2nc(Cl)c(Cl)nc2[nH]1	OVCAR-4	f
O=C(O)c1cc(O)nc(SCc2ccccc2)n1	OVCAR-4	f
C[C@]12CC[C@@H]3c4cc(OCC(F)(F)F)c(O)cc4CC[C@H]3[C@@H]1CC[C@@H]2O	OVCAR-4	f
CC(C)S(=O)(=O)ON1C(=O)c2ccc([N+](=O)[O-])cc2C1=O	OVCAR-4	f
NS(=O)(=O)c1ccc(NC(=S)NC=C2C(=O)c3ccccc3C2=O)cc1	OVCAR-4	f
CCOC(=O)/C(C#N)=C/c1ccnc2ccccc12	OVCAR-4	f
CCCCCN(CCCCC)C(=O)[C@H](CCC(=O)O)NC(=O)c1cc2ccccc2[nH]1	OVCAR-4	f
CCCCOC(=O)NC(=O)c1cn(CCCOC(=O)NCCCCCCNC(=O)OCCCn2cc(C(=O)NC(=O)OCCCC)c(=O)[nH]c2=O)c(=O)[nH]c1=O	OVCAR-4	f
CC1(C)OC2C(CCP(=O)(O)O)OC(c3nc(C(N)=O)cs3)C2O1 (configuration not stated)	OVCAR-4	f
NC1(C(=O)O)CCc2ccc(N(CCCl)CCCl)cc2C1 (configuration not stated)	OVCAR-4	f
COc1ccc(C(=O)C2=NON3OC23C(=O)c2ccc(OC)cc2)cc1 (configuration not stated)	OVCAR-4	f
CN(C)/C=C/c1ccncc1	OVCAR-4	f
NCCC(N)C(=O)O (configuration not stated)	OVCAR-4	f
COc1cc(/C=N/n2c(-c3ccccc3)nn(C(C)=O)c2=O)cc(OC)c1OC	OVCAR-4	f
Cc1cc(-c2ccccc2)cc2[n+]1CC=C2.[O-][Cl+3]([O-])([O-])[O-]	OVCAR-4	f
C[C@]12CCC(=O)C=C1CC[C@@H]1[C@@H]2[C@@H](O)C[C@@]2(C)[C@H]1CC[C@]2(O)C(=O)CO [HYDROCORTISONE]	OVCAR-4	f
CC[S+]([O-])c1c2cc(OC)ccc2nc2ccc(OC)cc12 (configuration not stated)	OVCAR-4	f
